# Log 1/Km per record follows
target: Cytochrome P450 3A4 (Homo sapiens, UniProt P08684); test: log (1/Km) value for human liver microsome cytochrome P450 3A4; settings: microsomes
Sequence (P08684 whole entry): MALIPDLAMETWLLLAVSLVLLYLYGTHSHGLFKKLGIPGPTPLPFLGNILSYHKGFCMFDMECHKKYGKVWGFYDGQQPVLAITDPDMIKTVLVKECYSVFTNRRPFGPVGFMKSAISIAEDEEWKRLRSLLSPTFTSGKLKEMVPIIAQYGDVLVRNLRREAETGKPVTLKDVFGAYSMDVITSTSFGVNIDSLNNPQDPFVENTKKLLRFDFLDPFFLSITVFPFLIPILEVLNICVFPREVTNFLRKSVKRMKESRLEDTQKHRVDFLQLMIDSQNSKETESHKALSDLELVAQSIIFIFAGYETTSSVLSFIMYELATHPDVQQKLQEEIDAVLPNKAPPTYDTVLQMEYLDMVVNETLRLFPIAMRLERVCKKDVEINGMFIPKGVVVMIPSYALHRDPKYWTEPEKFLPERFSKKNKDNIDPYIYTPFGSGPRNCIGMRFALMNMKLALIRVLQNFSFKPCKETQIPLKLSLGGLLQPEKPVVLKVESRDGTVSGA
Enter the number alone.

Reference set (4 entries):
molecule	numeric.value
CC(c1cc2ccccc2s1)N(O)C(N)=O (stereo not given)	-2.1938
CC/C(=C(\c1ccccc1)c1ccc(OCCN(C)C)cc1)c1ccccc1	-1.9912
CN1[C@@H]2CC[C@H]1C[C@@H](NC(=O)c1cc(Cl)cc3c1OC(C)(C)C3)C2	-2.3901
CC[C@]1(O)C[C@@H]2CN(CCc3c([nH]c4ccccc34)[C@@](C(=O)OC)(c3cc4c(cc3OC)N(C)[C@H]3[C@@](O)(C(=O)OC)[C@H](OC(C)=O)[C@]5(CC)C=CCN6CC[C@]43[C@@H]65)C2)C1	-0.834

Consider the record given below.
Cytochrome P450 3A4 (Homo sapiens, UniProt P08684) / Log 1/Km / CN(C)CCC=C1c2ccccc2CCc2ccccc21 : value?
-1.8407

* * *

target: Cytochrome P450 3A4 (Homo sapiens, UniProt P08684); assay: log (1/Km) value for human liver microsome cytochrome P450 3A4; conditions: microsomes
endpoint.label: Log 1/Km
Enter the number alone.

Reference set (4 entries):
compound	Log 1/Km
COc1ccc2[nH]c([S+]([O-])Cc3ncc(C)c(OC)c3C)nc2c1 (stereo not drawn) [OMEPRAZOLE]	-1.6902
CC[C@]1(O)C[C@@H]2CN(CCc3c([nH]c4ccccc34)[C@@](C(=O)OC)(c3cc4c(cc3OC)N(C)[C@H]3[C@@](O)(C(N)=O)[C@H](O)[C@]5(CC)C=CCN6CC[C@]43[C@@H]65)C2)C1 [VINDESINE]	-1.3927
ClC(Cl)Br [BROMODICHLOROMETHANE]	-1.4472
C[C@H](CCC(=O)NCCS(=O)(=O)O)[C@H]1CC[C@H]2[C@@H]3[C@H](O)C[C@@H]4C[C@H](O)CC[C@]4(C)[C@H]3CC[C@]12C [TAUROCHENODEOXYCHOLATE]	-1.9542

For the compound shown here, CS(=O)(=O)O.C[C@@H]1C[C@H]2[C@@H]3CCC4=CC(=O)C=C[C@]4(C)C3=CC[C@]2(C)[C@H]1C(=O)CN1CCN(c2cc(N3CCCC3)nc(N3CCCC3)n2)CC1 [TIRILAZAD MESYLATE] , give the reported Log 1/Km.
-0.2601

For the compound shown here, CC(C)(C)c1cc(CC2SCNC2=O)cc(C(C)(C)C)c1O (stereo not drawn) [TAZOFELONE] , give the reported Log 1/Km.
-0.996

For the compound shown here, COc1ccc(C(CN(C)C)C2(O)CCCCC2)cc1 (stereo not drawn) [VENLAFAXINE] , give the reported Log 1/Km.
0.0899

For the compound shown here, CC[C@H]1OC(=O)[C@H](C)[C@@H](O[C@H]2C[C@@](C)(OC)[C@@H](O)[C@H](C)O2)[C@H](C)[C@@H](O[C@@H]2O[C@H](C)C[C@H](N(C)C)[C@H]2O)[C@](C)(O)C[C@@H](C)C(=O)[C@H](C)[C@@H](O)[C@]1(C)O [ERYTHROMYCIN] , give the reported Log 1/Km.
-1.7853

For the compound shown here, CN1C(=O)CN=C(c2ccccc2F)c2cc([N+](=O)[O-])ccc21 [FLUNITRAZEPAM] , give the reported Log 1/Km.
-2.1892

For the compound shown here, C[C@]12CCC(=O)C=C1CC[C@@H]1[C@@H]2[C@@H](O)C[C@@]2(C)[C@H]1CC[C@]2(O)C(=O)CO [HYDROCORTISONE] , give the reported Log 1/Km.
-1.1818

For the compound shown here, CO[C@H]1C[C@@H]2CC[C@@H](C)[C@@](O)(O2)C(=O)C(=O)N2CCCC[C@H]2C(=O)O[C@H]([C@H](C)C[C@@H]2CC[C@@H](O)[C@H](OC)C2)CC(=O)[C@H](C)/C=C(\C)[C@@H](O)[C@@H](OC)C(=O)[C@H](C)C[C@H](C)/C=C/C=C/C=C/1C [SIROLIMUS] , give the reported Log 1/Km.
-0.9069

For the compound shown here, C/C=C/c1ccc(OC)c(CN[C@H]2C3CCN(CC3)[C@H]2C(c2ccccc2)c2ccccc2)c1 , give the reported Log 1/Km.
-1.3424

For the compound shown here, Cc1nnc2n1-c1ccc(Cl)cc1C(c1ccccc1)=NC2 [ALPRAZOLAM] , give the reported Log 1/Km.
-2.4232
